molecular target: T1, Biotinylated human TSLP (human, biotinylated); experiment: SPR, biotinylated hTSLP on streptavidin chip; Example 154, Ac-(SEQ ID NO: 113)
T1 construct: also called hTSLP; thymic stromal lymphopoietin
T1 sequence (chain, as listed by the source limits assumed): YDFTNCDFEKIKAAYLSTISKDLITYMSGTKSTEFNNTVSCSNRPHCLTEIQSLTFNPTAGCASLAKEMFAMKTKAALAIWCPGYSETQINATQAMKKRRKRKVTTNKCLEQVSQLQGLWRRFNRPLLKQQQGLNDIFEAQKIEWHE
ENDPOINT LABEL: pKd
The quantity pKd is defined as the negative base-10 logarithm of the molar concentration.

If you can, please state the reported pKd value of CQWXEDCWRGXC (not fully specified; N-term acetyl; CQW[LMe]EDCWRG[4-FPhe]C as printed; 3 Cys on TATA) [Example 154] .
5.54

Origin of values: patent US20220363718A1
